Tested on: OVCAR-4 ovarian
Experiment: NCI tumour cell line growth inhibition, 48 h
readout-name: TGI (µM)
Answer format: numeric, µM implied, no suffix.

The measured TGI that Fc1ccc(C(OCCN2CCN(CCCCl)CC2)c2ccc(F)cc2)cc1 showed for OVCAR-4 ovarian is 81.5

The measured TGI that CCOC(=O)N1CCN(/[N+]([O-])=N/Oc2ccc([N+](=O)[O-])cc2[N+](=O)[O-])CC1 showed for OVCAR-4 ovarian is 1.78

The measured TGI that C=CCN=c1sc2c(n1NC(=O)c1cc3ccc1CCc1ccc(cc1)CC3)C(=O)c1ccccc1C2=O showed for OVCAR-4 ovarian is 2.56

The measured TGI that N#CC1(C#N)C2(c3ccccc3)OC(c3ccccc3)(c3cc4ccccc4cc32)C1(C#N)C#N showed for OVCAR-4 ovarian is 27.2

====

Test system: ACHN renal
Test: NCI tumour cell line growth inhibition, 48 h
Record form. Attribute: GI50. Fill in for each entry.

Item: N.N.N.N.[Co+3].[N-]=[N+]=[N-].[N-]=[N+]=[N-].[N-]=[N+]=[N-] | GI50: 52 µM

Item: CCCCON(OC(=O)c1ccc2ccccc2c1)C(=O)c1ccccc1 | GI50: > 100 µM

Item: COc1ccc(C(=S)N2CCN(c3cccc(C)c3)CC2)cc1OC | GI50: 5.92 µM

Item: CCOC(=O)Nc1ccc2c(c1)/C(=N\NC(N)=S)c1ccccc1-2 | GI50: 3.87 µM

Item: CCCCCCCCNc1cc2c3c(c1)CCCN3CCC2 | GI50: 3.22 µM

Item: CCOC(=O)c1c(C)nc2c(c1N)CC(=O)N2Cc1ccc(OC)cc1 | GI50: 9.56 µM

====

Record form. Attribute: TGI. Fill in for each entry.
System: MOLT-4 leukemia
Experiment: NCI tumour cell line growth inhibition, 48 h
Answer format: numeric, µM implied, no suffix.

Item: CC1=NN(c2cccc(Cl)c2)C(=N/c2nc3ccccc3s2)/C1=C\c1ccc(Cl)cc1 | TGI: 73.7

Item: CN1CCc2c3n(c4cc(Br)ccc24)[C@H](O)CCCC31 (some centres not stated) | TGI: 3.97

Item: CC(C)Cn1cnc2c(SCc3ccc(Cl)cc3Cl)nc(N)nc21 | TGI: 26.9

Item: O=C(COc1ccc(Cl)cc1)N1N=C(c2ccc(Cl)cc2)CC1(O)c1ccccc1 (configuration not stated) | TGI: 30.6

Item: CC1OC(OC2C(O)COC(OC3C(C)OC(OC4C(OC(=O)[C@]56CCC(C)(C)C[C@@H]5C5=CCC7[C@@]8(C)C[C@H](O)[C@H](OC9OC(CO)C(O)C(OC%10OC(CO)C(O)C(O)C%10O)C9O)[C@@](C)(CO)[C@@H]8CC[C@@]7(C)[C@]5(C)CC6)OCC(O)C4O)C(O)C3OC3OCC(O)(CO)C3O)C2O)C(O)C(O)C1O (some centres not stated) | TGI: 30.1

Item: C=C1C(=O)O[C@@H]2C[C@@H](C)[C@@H]3C=CC(=O)[C@@]3(C)[C@@H](O)[C@H]12 | TGI: 3.36

Item: COC(=O)/C=C\COCC1C2CCC(=O)C21 (configuration not stated) | TGI: 20.7

====

System: HOP-92 NSCLC
Test: NCI tumour cell line growth inhibition, 48 h; in the data active means GI50 below about 0.43 µM; inactive means the rest
Your response should consist of one outcome taken from YES = active, NO = inactive

Tell me the assay call for CN(CCO)CC[C@H](CSc1ccccc1)Nc1ccc(S(=O)(=O)NC(=O)c2ccc(N3CCC([C@@H](O)c4ccccc4-c4ccc(Cl)cc4)CC3)cc2)cc1S(=O)(=O)C(F)(F)F please.
YES

Tell me the assay call for COC(=O)c1ccc(-c2nc3cc(Cl)c(Cl)cc3nc2C#N)cc1 please.
NO

Tell me the assay call for Oc1c(-c2nnc(-c3ccccc3Cl)o2)sc2nnc(-c3ccccc3)c(-c3ccccc3)c12 please.
NO

Tell me the assay call for CCN(Cc1cc(Nc2nc(C)cn3c(-c4cn[nH]c4)cnc23)sn1)C(C)(C)CO please.
YES

Tell me the assay call for CCCCON(OC(=O)c1ccc2ccccc2c1)C(=O)c1ccccc1 please.
NO

Tell me the assay call for N#Cc1ccc(OCc2nc(N)nc(N)c2-c2ccc(Cl)c(Cl)c2)cc1 please.
NO

====

Test system: 786-0 renal
Test: NCI tumour cell line growth inhibition, 48 h
readout-name: TGI (µM)
Answer format: numeric, µM implied, no suffix.

Item: C[C@H](NC(=O)[C@@H](C)N)[C@H](Oc1ccc2c(cnn2-c2ccc(F)cc2)c1)c1ccc2c(c1)OCCO2 | TGI: 14.3

Item: OCCOCCN1CCN(CCCN2c3ccccc3Sc3ccc(C(F)(F)F)cc32)CC1 | TGI: 31.3

Item: CN(Cc1ccccc1)C(=NC#N)N(Cc1ccccc1)Cc1ccccc1 | TGI: 97.6

Item: O=c1c2ccccc2nc(-c2cc3c(cc2Cl)Sc2nccn2S3(=O)=O)n1-c1ccccc1 | TGI: 94.6

====

Tested on: SK-MEL-2 melanoma
Experiment: NCI tumour cell line growth inhibition, 48 h
readout-name: TGI

Item: CCOC(=O)c1cc(=O)c2ccnc3c2n1CCS3 | TGI: > 100 µM

Item: O=C1N(C2CCCCC2)CC12CCCCC2 | TGI: > 100 µM

Item: CCOc1cccc(/C=N/N=C2\C(=O)Nc3c(Cl)cc(Cl)cc32)c1O | TGI: > 100 µM

Item: O=C(O)CCC(=O)N1c2ccccc2CC1c1c[nH]c2ccccc12 (stereo not given) | TGI: > 100 µM

Item: C/C=C(\C)C(=O)NC1=CC[C@@]2(C)C(=CCC3C2CC[C@@]2(C)C3CC[C@@H]2C(C)N(C)C)C1=O (stereo not given in full) | TGI: 22.9 µM

Item: CSc1nc(NC2OCC(O)C(O)C2O)c(N)c(=O)[nH]1 (stereo not given) | TGI: > 100 µM

Item: CCOC(=O)c1nnsc1NC(=O)Nc1ccc(Cc2ccc(NC(=O)Nc3snnc3C(=O)OCC)cc2)cc1 | TGI: > 100 µM

Item: C=C(CN1C(=O)CN(C)C1=O)c1ccc(C(=O)Nc2ccccc2N)cc1 | TGI: > 100 µM

Item: CC[C@@]1(O)C(=O)OCc2c1cc1n(c2=O)Cc2c-1nc1ccccc1c2/C=N\NC(=O)C(N)CO (stereo not given in full) | TGI: > 100 µM

Item: CC1(C)C2C=C(CCN3CCOCC3)CC1C2 (stereo not given) | TGI: > 100 µM

Item: CCN(CC)c1c(C(=O)/C=C/c2ccc(Cl)cc2)c(-c2ccccc2)nn(C)c1=O | TGI: 3.62 µM

Item: COc1ccc(/C=C2\CCC(CNc3ccc(S(N)(=O)=O)cc3)C2=O)cc1 (stereo not given) | TGI: > 100 µM

Item: Cc1ccc([N+](=O)[O-])cc1S(=O)(=O)Nc1ccc(C2=NOC(c3ccco3)C2)cc1 (stereo not given) | TGI: 33.8 µM

Item: C=C(CCOC)CCC1CCCCC(=C)[C@H]1OC(C)=O (stereo not given in full) | TGI: > 100 µM

Item: NC(=O)C(=O)N/N=C1\C(=O)N(c2ccc(Cl)cc2Cl)C(=O)C1C(=O)Nc1ccc(Cl)cc1Cl (stereo not given) | TGI: > 100 µM

Item: C[C@@]1(O)C[C@@H](N2C(=O)O[C@@H](c3ccccc3)[C@H]2c2ccccc2)[C@@H]1COCc1ccccc1 | TGI: 27.5 µM

Item: Cc1c(C)c(C)c(-n2c(=O)n(C)c(=O)n2-n2c(=O)n(C)c(=O)n2-c2c(C)c(C)c(C)c(C)c2C)c(C)c1C | TGI: > 100 µM

Item: COc1ccc(/C=N/N=C(\N)NO)cc1O | TGI: > 100 µM

Item: O=[N+]([O-])c1ccc(C[P+](c2ccccc2)(c2ccccc2)c2ccccc2)cc1 | TGI: > 100 µM

Item: O=c1[nH]nnc2c1ncn2C1OC(CO)C(O)C1O (stereo not given) | TGI: 12.2 µM

====

Record form. Attribute: TGI. Fill in for each entry.
Test system: SNB-75 CNS
Assay: NCI tumour cell line growth inhibition, 48 h

Item: c1coc(CNc2ncnc3[nH]ncc23)c1 | TGI: > 100 µM

Item: C=C1C(=O)O[C@H]2[C@H]1CC/C(CNC(=O)/C=C/c1cc(OC)c(OC)c(OC)c1)=C\CC[C@@]1(C)O[C@@H]21 | TGI: 22.9 µM

Item: COc1ccc(/C=C2\CCC(CNc3ccc(S(N)(=O)=O)cc3)C2=O)cc1 (stereo not given) | TGI: 76.2 µM

Item: CCOC(=O)c1c(C)nc2c(c1N)CC(=O)N2Cc1ccc(OC)cc1 | TGI: 25.8 µM

Item: Clc1nc(Cl)c2ncn(CC3(Cn4cnc5c(Cl)nc(Cl)nc54)COC3)c2n1 | TGI: 0.395 µM

Item: C=CCN=c1sc2c(n1NC(=O)c1cc3ccc1CCc1ccc(cc1)CC3)C(=O)c1ccccc1C2=O | TGI: 2.77 µM

Item: Cc1cc(C)n(-c2nsc3ccccc23)n1 | TGI: 98.3 µM

Item: CCOC(=O)Nc1ccc2c(c1)/C(=N\NC(N)=S)c1ccccc1-2 | TGI: 18.2 µM

Item: CC[C@@]1(O)C(=O)OCc2c1cc1n(c2=O)Cc2c-1nc1ccccc1c2/C=N\NC(=O)C(N)CO (stereo not given in full) | TGI: 0.312 µM

Item: COc1cc(C2=C(c3cc(OC)c4ccccc4c3OC)C(=O)c3ccccc3C2=O)c(OC)c2ccccc12 | TGI: > 100 µM
